Source listed as patent US6100254A.

As an illustration, consider measured IC50 for molecules on Lck (p56^lck) (Mus musculus).
Sequence (P06240 whole entry): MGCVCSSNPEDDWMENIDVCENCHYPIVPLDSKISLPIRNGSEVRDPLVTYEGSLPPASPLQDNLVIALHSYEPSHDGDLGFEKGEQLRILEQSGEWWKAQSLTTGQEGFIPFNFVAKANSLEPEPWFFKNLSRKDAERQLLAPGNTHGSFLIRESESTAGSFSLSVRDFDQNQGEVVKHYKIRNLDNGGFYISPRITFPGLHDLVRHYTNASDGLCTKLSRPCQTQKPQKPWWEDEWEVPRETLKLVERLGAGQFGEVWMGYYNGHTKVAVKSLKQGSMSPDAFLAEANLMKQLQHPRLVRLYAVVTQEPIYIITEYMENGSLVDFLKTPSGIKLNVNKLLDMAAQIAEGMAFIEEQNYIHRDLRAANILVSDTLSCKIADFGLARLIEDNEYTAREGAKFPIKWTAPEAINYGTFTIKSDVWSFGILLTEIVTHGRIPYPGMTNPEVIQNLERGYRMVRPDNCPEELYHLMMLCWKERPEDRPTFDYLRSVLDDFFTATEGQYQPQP
Give bare numbers, in µM.

| Molecule | Study target | Value unit | IC50 |
| --- | --- | --- | --- |
| O=C1[C@@H](Cc2ccc(O)cc2)N=C(c2ccc(O)cc2)c2cc(Cl)ccc2N1Cc1ccc(-c2ccccc2)cc1 [D-Tyr,BnzPh] | Lck (p56^lck) (Mus musculus) | µM | 640 |
| O=C1[C@H](Cc2ccc(O)cc2)N=C(c2ccc(O)cc2)c2cc(Cl)ccc2N1Cc1ccccc1 [L-Tyr,Bnz] | Lck (p56^lck) (Mus musculus) | µM | 570 |

// moving on: another record for IC50
[in] What measured IC50 goes with O=C1[C@H](Cc2ccc(O)cc2)N=C(c2ccc(O)cc2)c2cc(Cl)ccc2N1Cc1ccc(-c2ccccc2)cc1 [L-Tyr,BnzPh] ?
[out] 505
